In this section we review reported melting point values for a set of compounds.

Worked examples, 6 compounds total:
COC1CN(c2cccc(-c3cnc4[nH]cc(C(=O)C(C)(C)C)c4n3)c2)C1 [Example 111] ... 196 to 198 °C
COc1ccc(F)cc1-c1cnc2[nH]cc(C(=O)CC(C)C)c2n1 [Example I-5] ... 186 to 187 °C
CC(C)(C)C(=O)c1c[nH]c2ncc(-c3cccc(N4CCCC4)c3)nc12 [Example 33] ... 259 to 260 °C
COc1cc(-c2cnc3[nH]cc(C(=O)C(C)C)c3n2)cc(OC)c1OC [Example 68] ... 189 to 190 °C
CC(C)(C)C(=O)c1c[nH]c2ncc(-c3cccc(C(=O)NC4CCCC4)c3)nc12 [Example I-136] ... 227 to 228.5 °C
CC1(C(=O)c2c[nH]c3ncc(-c4cccc(N5CCCC5)c4)nc23)CCCC1 [Example 167] ... 242 to 243 °C

GET /value?item= CC(=O)Nc1ccc(S(=O)(=O)Nc2cc(-c3cnc4[nH]cc(C(=O)C(C)(C)C)c4n3)ccc2C)cc1 [Example I-415] &field=melting point returns 274 to 276 °C

###

Property label: melting point

COc1ccc(-c2cnc3[nH]cc(C(N)=O)c3n2)cc1OC ... 290 to 292.4 °C

GET /value?item= "CC(C)(C)C(=O)c1c[nH]c2ncc(-c3cccc(-c4ccn[nH]4)c3)nc12" &field=melting point returns 277 to 278 °C

GET /value?item= "COc1cc(-c2cnc3[nH]cc(C(=O)N4CCC(C)(C)C4)c3n2)cc(OC)c1OC" &field=melting point returns 228 to 230 °C

GET /value?item= "CC1(C(=O)c2c[nH]c3ncc(-c4cccc(N5CCCC5)c4)nc23)CCCCCC1" &field=melting point returns 192 to 193 °C

GET /value?item= "COc1cccc(-c2cnc3[nH]cc(C(=O)C4(C)CCCCC4)c3n2)c1" &field=melting point returns 173 to 175 °C

GET /value?item= "CC(C)(C)C(=O)c1c[nH]c2ncc(-c3cccc(-c4ccccc4)c3)nc12" &field=melting point returns 219.9 to 221.1 °C

###

Property label: melting point

COc1ccc(-c2cnc3[nH]cc(C(=O)C(C)(C)C)c3n2)cc1 [Example 98] ... 207 to 208 °C
CC(C)(C)C(=O)c1c[nH]c2ncc(-c3cccc(CCO)c3)nc12 [Example 148] ... 202 to 203 °C
CC(C)Oc1cc(-c2cnc3[nH]cc(C(=O)C(C)(C)C)c3n2)cc(N2CCCC2)c1 [Example I-152] ... 233 to 235 °C

# input for lookup
GET /value?item= CNS(=O)(=O)c1cccc(-c2cnc3[nH]cc(C(=O)C(C)(C)C)c3n2)c1 [Example 141] &field=melting point returns 245 to 247 °C
